- tested-system: UniProt P35372
- Sequence (P35372 whole entry): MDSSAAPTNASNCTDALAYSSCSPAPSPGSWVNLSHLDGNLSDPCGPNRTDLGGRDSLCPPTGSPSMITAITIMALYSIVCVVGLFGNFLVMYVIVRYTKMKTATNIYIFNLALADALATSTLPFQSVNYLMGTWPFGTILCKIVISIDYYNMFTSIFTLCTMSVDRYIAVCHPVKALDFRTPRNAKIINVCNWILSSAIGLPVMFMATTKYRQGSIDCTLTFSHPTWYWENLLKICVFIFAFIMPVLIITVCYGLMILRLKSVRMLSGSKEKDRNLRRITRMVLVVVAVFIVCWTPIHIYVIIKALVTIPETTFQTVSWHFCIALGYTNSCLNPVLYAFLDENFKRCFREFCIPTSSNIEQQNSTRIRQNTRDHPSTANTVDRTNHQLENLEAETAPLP
- experiment-description: Affinity for the human μ-opiate receptor ([3H]-naloxone displacement, SPA, CHO-K1 membrane preparation)
- Format: binding
- conditions-used: read-out: μ-Opioid receptor, % inhibition [1 μM]
Where a name gives a salt, the structure may show the parent alone.
readout-name: inhibition at 1 µM
Don't forget the unit after the value.

CC(Oc1ccccc1)C(=O)NC1CCC(C(c2cccc(F)c2)N(C)C)CC1 (single isomer, unassigned) : 90%
CN(C)C(c1cccc(F)c1)C1CCC(CCNC(=O)c2cc(F)c(Cl)cc2Cl)CC1 (single isomer, unassigned) : 87%
COc1ccc(C(=O)NC2CCC(C(c3cccs3)N(C)C)CC2)c(OC)c1 (centres unmarked) : 94%
Cc1cc(C(=O)NCC2CCC(C(c3ccccc3)N(C)C)CC2)no1 (centres unmarked) : 83%
CN(C)C(c1ccccc1)C1CCC(NC(=O)c2cccc(C#N)c2)CC1 (centres unmarked) : 78%

[ask] # lookup: inhibition at 1 µM of Cc1cc(C(=O)NC2CCC(C(c3ccccc3)N(C)C)CC2)n(C(C)(C)C)n1 (centres unmarked)
[reply] 88%

[ask] # lookup: inhibition at 1 µM of CN(C)C(c1ccccc1)C1CCC(CCNC(=O)c2ccc(Cl)c(Cl)c2)CC1 (centres unmarked)
[reply] 86%

[ask] # lookup: inhibition at 1 µM of CCC(CC)C(=O)NC1CCC(C(c2ccccc2)N(C)C)CC1 (centres unmarked) [compound 93, hydrochloride]
[reply] 94%

Source of measurements: patent US8058475B2
